- procedure_details: Quantitative High-Throughput drug screen in 47 multiple myeloma cell lines against the NCATS MIPE library collection: OCIMY5_PLB cell viability assay (AID 1918988); note: nearly all actives have a fitted effect of over 65% in size; note: potency is the fitted concentration of half-maximal effect
- condition_set: OCI-MY5 myeloma viability, ATP luminescence, 48 h; series mostly up to 45.8 µM
Records with an inconclusive call do not appear. Active and inactive are the calls of the source. Calls come from the whole dose curve; as a rule, active = well fitted cell-killing curve with a large enough effect; inconclusive = small, poorly fitted or top-dose-only effect, or effect the other way; inactive = no such curve, though single readings can be large or run the other way.
observed_property: Potency

A selection of reference data follows.
> print(dat)
                                    compound  observed.property            reported
 1  CC(C)C[C@H](NC(=O)[C@H](CCc1ccccc1)NC(=O)CN1CCOCC1)C(=O)N[C@@H](Cc1ccccc1)C(=O)N[C@@H](CC(C)C)C(=O)[C@@]1(C)CO1            Potency  0.0033 µM (active)
 2  CC1CC2C3CCC4=CC(=O)C=C[C@]4(C)[C@@]3(F)[C@@H](O)C[C@]2(C)[C@@]1(O)C(=O)CO (stereo partly specified)            Potency    2.64 µM (active)
 3                            NC(=O)c1cccnc1            Potency            inactive
 4  CC[C@H](C)C(=O)O[C@H]1C[C@@H](C)C=C2C=C[C@H](C)[C@H](CC[C@@H]3C[C@@H](O)CC(=O)O3)[C@H]21            Potency    16.6 µM (active)
 5  CCC(=O)O[C@]1(C(=O)SCF)[C@H](C)C[C@H]2[C@@H]3C[C@H](F)C4=CC(=O)C=C[C@]4(C)[C@@]3(F)[C@@H](O)C[C@@]21C            Potency    23.5 µM (active)
 6                    S=P(N1CC1)(N1CC1)N1CC1            Potency            inactive
 7  COC(=O)Nc1nc2ccc(S(=O)c3ccccc3)cc2[nH]1 (stereo unspecified)            Potency    16.6 µM (active)
 8                       CCCc1cc(C(N)=S)ccn1            Potency            inactive
 9   COC(=O)Nc1nc2ccc(C(=O)c3ccccc3)cc2[nH]1            Potency   0.418 µM (active)
10  CC(C)(C)C(=O)OCOP(=O)(COCCn1cnc2c(N)ncnc21)OCOC(=O)C(C)(C)C            Potency    1.87 µM (active)

Here is the next item to consider.
Recall and state the measured Potency for CCCCOc1ccc(CC(=O)NO)cc1 .
9.35 µM (active)

Data credit: PubChem BioAssay (NCATS)
